target: Bovine submaxillary mucin (bovine, heavily O-glycosylated (sialylated) mucin preparation; the polypeptide is not given, and the main bovine submaxillary mucin (MUC19) is assumed with limits from the CHAIN feature; the pre); assay: SPR; Biacore 3000; odorranalectin immobilised on sensor chip CM-5 by amine coupling, glycoproteins as analytes diluted in HBS-EP (10 mM HEPES-buffered saline, 3 mM EDTA, 0.005% surfactant P-20, pH 7.4); 1:1 binding model; KD calculated from ka and kd; details: both partners purified
readout name: pKd
Give bare numbers, as −log10 of the molar value.

Input: Consider the binder YASPKCFRYPNGVLACT (odorranalectin, mature 17-residue peptide at the C-terminus of the 61-residue precursor, Odorrana grahami; follows the di-basic site K42R43 of the precursor; One intramolecular disulfide bond Cys6-Cys16; Immobilised on a CM-5 chip by amine coupling; Details of purification and synthesis are in Materials and Methods S1; also called lectin-like peptide; source: purified from O. grahami skin …) [odorranalectin] and give its measured pKd.
Output: 5.54
